MBEC^tt for assorted compounds
- Tested on: A. baumannii ATCC 19606 biofilm
- Format: cell-based, Acinetobacter baumannii
- test-settings: 24 h biofilm on 0.5-cm tracheal tube fragments, 24 h treatment at 37 °C, resazurin read-out, triplicate
Numbers only; they are read as µg/mL.

Here O=C(O)c1cn(C2CC2)c2cc(N3CCNCC3)c(F)cc2c1=O [Ciprofloxacin, reference compound] was tested on A. baumannii ATCC 19606 biofilm, and its MBEC^tt came to 1

Here CO[C@H]1/C=C/O[C@@]2(C)Oc3c(C)c(O)c4c(O)c(c(/C=N/N5CCN(C)CC5)c(O)c4c3C2=O)NC(=O)/C(C)=C\C=C\[C@H](C)[C@H](O)[C@@H](C)[C@@H](O)[C@@H](C)[C@H](OC(C)=O)[C@@H]1C [Rifampicin, reference compound] was tested on A. baumannii ATCC 19606 biofilm, and its MBEC^tt came to 4

Here CNC(C)C1CCC(N)C(OC2C(N)CC(N)C(OC3OCC(C)(O)C(NC)C3O)C2O)O1 (stereo not drawn) [Gentamicin, reference compound] was tested on A. baumannii ATCC 19606 biofilm, and its MBEC^tt came to 32
